# Test Summary: in vivo
# Conditions Used: female, beagle, dog, 26 mg/kg/day
Where a name gives a salt, the structure may show the parent alone.

[
  {
    "Compound": "COc1cccc([C@]2(O)CCCC[C@H]2CN(C)C)c1 (racemic) [Tramadol, hydrochloride]",
    "AUC(0-t)": "1520 ng·h/mL"
  }
]

====

# Test Summary: clinical
# Conditions Used: human, in vivo, po, 100 mg, Cmax
Where a name gives a salt, the structure may show the parent alone.

[
  {
    "Compound": "COc1cccc([C@]2(O)CCCC[C@H]2CN(C)C)c1 (racemic) [Tramadol, hydrochloride]",
    "Cmax [ng/mL]": 703
  }
]

====

# Test Summary: clinical
# Conditions Used: human, in vivo, iv, 100 mg
Counter-ions that a name gives are not always drawn.

[
  {
    "Compound": "COc1cccc([C@]2(O)CCCC[C@H]2CN(C)C)c1 (racemic) [Tramadol, hydrochloride]",
    "Unit String": "ng·h/mL",
    "AUC(0-t)": 11200
  }
]

====

# Test Summary: clinical
# Conditions Used: human, in vivo, iv, 50 mg, Cmax
Counter-ions that a name gives are not always drawn.
Endpoint Label: Cmax

[
  {
    "Compound": "COc1cccc([C@]2(O)CCCC[C@H]2CN(C)C)c1 (racemic) [Tramadol, hydrochloride]",
    "Endpoint Label": "Cmax",
    "Assay Result": "~0.541 µg/mL"
  }
]

====

# Test Summary: clinical
# Conditions Used: human, in vivo, po, 50 mg
Where a name gives a salt, the structure may show the parent alone.
Endpoint Label: AUC (ng·h/mL)

[
  {
    "Compound": "COc1cccc([C@]2(O)CCCC[C@H]2CN(C)C)c1 (racemic) [Tramadol, hydrochloride]",
    "Endpoint Label": "AUC",
    "Assay Result": 1730
  }
]

====

# Test Summary: clinical
# Conditions Used: human, in vivo, iv, 50 mg
Where a name gives a salt, the structure may show the parent alone.

[
  {
    "Molecule": "COc1cccc([C@]2(O)CCCC[C@H]2CN(C)C)c1 (racemic) [Tramadol, hydrochloride]",
    "Unit String": "ng·h/mL",
    "AUC(0-t)": 4010
  }
]

====

# Test Summary: in vivo
# Conditions Used: female, beagle, dog, 26 mg/kg/day
Structures can show the parent of a compound that is named as a salt.

[
  {
    "Compound": "COc1cccc([C@]2(O)CCCC[C@H]2CN(C)C)c1 (racemic) [Tramadol, hydrochloride]",
    "Cmax, ng/mL": 1530
  }
]

====

# Test Summary: clinical
# Conditions Used: human, in vivo, po, 100 mg, Tmax
Structures can show the parent of a compound that is named as a salt.

[
  {
    "Molecule": "COc1cccc([C@]2(O)CCCC[C@H]2CN(C)C)c1 (racemic) [Tramadol, hydrochloride]",
    "Unit String": "h",
    "Tmax": 2.32
  }
]

====

# Test Summary: clinical
# Conditions Used: human, in vivo, iv, 50 mg, Tmax
# Experimental: The secondary objectives of the study are to assess the safety and tolerability of the study medication. The study was an open-label, single-period, randomized, parallel treatment design. The subjects underwent screening within 4 weeks of dosing. […] No food was administered until 4 hours after dosing on Day 3. […] Study drug tolerability was evaluated by Investigator assessment and evaluation of adverse event frequency and severity, including irritation at the injection site. […]
Where a name gives a salt, the structure may show the parent alone.
Endpoint Label: Tmax

[
  {
    "Molecule": "COc1cccc([C@]2(O)CCCC[C@H]2CN(C)C)c1 (racemic) [Tramadol, hydrochloride]",
    "Assay Result": "~22.5 min"
  }
]
